# target of assay: KQT1 (Homo sapiens, UniProt P51787)
# Sequence (P51787 whole entry): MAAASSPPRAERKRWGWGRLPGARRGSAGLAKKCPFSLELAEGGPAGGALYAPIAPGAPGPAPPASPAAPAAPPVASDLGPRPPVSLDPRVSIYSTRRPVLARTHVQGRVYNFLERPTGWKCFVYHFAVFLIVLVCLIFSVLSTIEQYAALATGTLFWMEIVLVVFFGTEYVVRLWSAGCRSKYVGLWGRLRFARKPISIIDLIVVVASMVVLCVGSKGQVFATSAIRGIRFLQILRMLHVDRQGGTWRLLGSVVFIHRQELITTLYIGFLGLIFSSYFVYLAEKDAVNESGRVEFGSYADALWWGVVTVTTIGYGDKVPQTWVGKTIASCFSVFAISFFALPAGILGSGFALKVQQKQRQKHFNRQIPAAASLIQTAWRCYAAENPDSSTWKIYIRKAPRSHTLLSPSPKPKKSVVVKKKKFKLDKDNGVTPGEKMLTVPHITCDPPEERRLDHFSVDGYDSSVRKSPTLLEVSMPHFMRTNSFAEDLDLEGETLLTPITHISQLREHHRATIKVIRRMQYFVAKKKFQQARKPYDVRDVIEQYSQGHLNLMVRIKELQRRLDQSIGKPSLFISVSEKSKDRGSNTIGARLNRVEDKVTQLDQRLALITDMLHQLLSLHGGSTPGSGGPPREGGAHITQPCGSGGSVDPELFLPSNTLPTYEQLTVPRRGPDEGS
# assay text: Blockade of cloned KQT1 channel in oocytes
parameter measured: pIC50
# reply with the number alone; pIC50 is -log10 of concentration in mol/L

Please look up its pIC50: O=C1N(c2ccccc2)c2ccccc2C1(Cc1ccncc1)Cc1ccncc1 [Linopirdine]
5.05

----------
# target of assay: elk1 (Rattus norvegicus)
# Construct: expressed in transfected cells; host or cells: oocytes (Xenopus)
# Sequence (Q9QWS8 whole entry): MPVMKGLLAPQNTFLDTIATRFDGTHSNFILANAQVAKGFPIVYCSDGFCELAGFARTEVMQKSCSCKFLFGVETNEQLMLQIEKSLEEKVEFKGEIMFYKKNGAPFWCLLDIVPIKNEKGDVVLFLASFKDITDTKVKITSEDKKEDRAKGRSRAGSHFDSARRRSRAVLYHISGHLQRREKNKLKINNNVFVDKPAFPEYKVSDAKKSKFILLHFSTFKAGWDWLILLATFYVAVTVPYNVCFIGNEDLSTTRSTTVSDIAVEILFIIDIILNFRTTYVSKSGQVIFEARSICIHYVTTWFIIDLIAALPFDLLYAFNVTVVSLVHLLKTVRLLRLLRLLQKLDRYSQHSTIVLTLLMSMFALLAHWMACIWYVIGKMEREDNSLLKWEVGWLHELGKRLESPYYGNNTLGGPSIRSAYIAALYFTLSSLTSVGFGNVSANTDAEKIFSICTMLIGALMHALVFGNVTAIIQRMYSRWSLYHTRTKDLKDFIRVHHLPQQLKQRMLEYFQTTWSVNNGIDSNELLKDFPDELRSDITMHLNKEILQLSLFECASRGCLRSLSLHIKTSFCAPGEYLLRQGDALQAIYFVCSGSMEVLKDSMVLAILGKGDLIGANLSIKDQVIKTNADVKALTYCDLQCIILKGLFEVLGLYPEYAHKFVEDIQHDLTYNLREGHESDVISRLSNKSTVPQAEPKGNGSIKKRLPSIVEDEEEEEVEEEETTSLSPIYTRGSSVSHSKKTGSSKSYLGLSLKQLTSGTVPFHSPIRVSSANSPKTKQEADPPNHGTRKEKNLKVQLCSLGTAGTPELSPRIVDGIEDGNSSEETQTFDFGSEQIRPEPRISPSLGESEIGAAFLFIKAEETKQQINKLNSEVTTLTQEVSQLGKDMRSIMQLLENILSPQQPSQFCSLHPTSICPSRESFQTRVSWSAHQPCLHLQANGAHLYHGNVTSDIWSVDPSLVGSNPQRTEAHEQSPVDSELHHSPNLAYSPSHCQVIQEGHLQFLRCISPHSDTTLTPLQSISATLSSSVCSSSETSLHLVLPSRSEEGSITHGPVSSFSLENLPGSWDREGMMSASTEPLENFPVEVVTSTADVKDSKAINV
# assay text: Blockade of cloned elk1 channel in oocytes
# Type: cell-based
# experimental setup: at +30 mV
parameter measured: pIC50
# reply with the number alone; pIC50 is -log10 of concentration in mol/L

Query for elk1 (Rattus norvegicus): what pIC50 does the record show for O=C1N(c2ccccc2)c2ccccc2C1(Cc1ccncc1)Cc1ccncc1 [Linopirdine] ?
3.84
